# efficacy annotations
tested on: HCT116; assay: efficacy (fitted maximal change in viability relative to DMSO control); higher = less cytotoxic (negative = loss of viability); conditions: 48 h;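 also: Luminescence-based viability readout, five doses per compound, normalized against on-plate DMSO and empty-well controls, followed by dose-response curve fitting for every drug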
Structures can show the parent of a compound that is named as a salt.
Quick note: give the figure in %, leave out the unit.

Worked examples follow.
COMPOUND	ASSAYED SYSTEM	efficacy / %
CCOC(=O)[C@H]1O[C@@H]1C(=O)N[C@@H](CC(C)C)C(=O)NCCC(C)C	HCT116	-5.94
CC(C)NCC(O)c1ccc(O)c(O)c1 (stereo not drawn) [Isoprenaline hydrochloride]	HCT116	-16.7
CC(=O)Oc1ccccc1C(=O)Nc1ncc([N+](=O)[O-])s1 [Nitazoxanide]	HCT116	-80.3

input: Returns the measured efficacy for the input compound. Input: CO[C@@H]1[C@@H](O)[C@H](O)[C@@H](n2c3c(Cl)cccc3c3c4c(c5c6cccc(Cl)c6[nH]c5c32)C(=O)NC4=O)O[C@H]1CO
output: -88.9

input: Returns the measured efficacy for the input compound. Input: CNC(=O)c1cccc2cc(Oc3ccnc4cc(OCC5(N)CC5)c(OC)cc34)ccc12
output: -96.6

input: Returns the measured efficacy for the input compound. Input: CC(C)C(=O)Nc1ccc([N+](=O)[O-])c(C(F)(F)F)c1 [Flutamide]
output: -14.3

input: Returns the measured efficacy for the input compound. Input: CN(C)CCOc1ccc(-c2nc(-c3ccncc3)c(-c3ccc4c(c3)CC/C4=N\O)[nH]2)cc1
output: -134

input: Returns the measured efficacy for the input compound. Input: C[S+](=O)([O-])Nc1ccc([N+](=O)[O-])cc1Oc1ccccc1 [Nimesulide]
output: -15.6
